# method-notes: Novel Modifiers of Survival Motor Neuron (SMN) Protein: Gene Identification via Genome-wide siRNA Screen;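 also: luminescence tracks full-length SMN protein made from the SMN2 reporter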
# measurement-context: HEK293T SMN2-luciferase reporter, siRNA knockdown, 72 h; actives lie on both sides
About 1,400 (4.5%) of roughly 31,000 sequences were called active.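 The calls were made as follows: active = median seed-adjusted z-score above 1 or below -1; inactive = the rest.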 This is one part of a sample in which actives are shown more often than they occur.
Outcomes: active, inactive

sequence-chain | assigned-label
GCAAGAGAAUUAAACUGCATT against RAB8A | inactive
CAGACUUAUUGUAACAAGATT against ENPP3 | inactive
GCUCAGUUCUCGUCAAGGATT against ARIH2 | inactive
CAUCCAUUAUGACCUGCUATT against ACO2 | active
CCAAGCCUCUUUCCUACAATT against GPR52 | active
CGUGUACCCGUUUGACUUUTT against SGSH | inactive
GCACCUCUACAGGAACUUUTT against TSC2 | active
GGCUGGACAGUAAUUCAGATT against ANGPTL4 | active
CUCAGAGUGCAGAACCACATT against TRIM15 | inactive

The measured values listed here are drawn from PubChem BioAssay AID1347426.
